Test system: Human immunodeficiency virus 1
run_description: Antiviral activity against HIV-1 infected in human NCK45 cells assessed as inhibition of infection after 48 hrs by dual-reporter gene assay
Assay type: functional, organism-based
applied_conditions: Human immunodeficiency virus 1, NCK45, 48 h
In this section, each of the molecules is paired with its reported EC50.

CCC(=O)Nc1cc(CNc2c(C#N)c(C)nn2C)cc(Cl)c1O	> 10 µM
CCC(=O)Nc1cc(CNc2c(C#N)c(C)nn2-c2cccc(OC)c2)cc(Cl)c1O	> 10 µM
CCC(=O)Nc1cc(CNc2c(C(=O)OC)c(C)nn2-c2ccccc2)cc(Cl)c1O	> 1 µM

Now turn to the next molecule.
Hello, please tell me recorded EC50 for this one: CCC(=O)Nc1cc(CNc2c(C#N)c(C)nn2-c2cc(Cl)cc(Cl)c2)cc(Cl)c1O
> 1 µM

----------
In this section, each of the compounds is paired with its reported pEC50.
Test system: Human immunodeficiency virus 1
run_description: Antiviral activity against HIV-1 infected in human NCK45 cells assessed as inhibition of infection after 48 hrs by dual-reporter gene assay
Format: functional, organism-based
applied_conditions: Human immunodeficiency virus 1, NCK45, 48 h
pEC50: −log10 of the molar value.

Before answering, review these 6 worked examples.
CCC(=O)Nc1cc(CNc2c(C#N)c(C)nn2-c2cccc(C)c2)cc(Cl)c1O	6.43
CCC(=O)Nc1cc(CNc2c(C#N)c(C)nn2-c2ccc(C)cc2)cc(Cl)c1O	< 6.00
CCC(=O)Nc1cc(CNc2c(C#N)c(C)nn2-c2cccc(-c3ccccc3OC)c2)cc(Cl)c1O	< 7.00
CCC(=O)Nc1cc(CNc2c(C#N)c(C)nn2-c2cccc(-c3cccc(Cl)c3)c2)cc(Cl)c1O	< 7.00
CC(=O)Nc1cc(CNc2c(C#N)c(C)nn2-c2ccccc2)cc(Cl)c1O	< 6.00
CCC(=O)Nc1cc(CNc2c(C#N)c(C)nn2-c2ccccc2)ccc1O	< 5.00

Hello, please tell me recorded pEC50 for this one: CCCCCC(=O)Nc1cc(CNc2c(C#N)c(C)nn2-c2ccccc2)cc(Cl)c1O
< 5.00

Hello, please tell me recorded pEC50 for this one: CCC(=O)Nc1cc(CNc2c(C#N)c(C)nn2-c2cccc3ccccc23)cc(Cl)c1O
< 6.00

Hello, please tell me recorded pEC50 for this one: CCC(=O)Nc1cc(CNc2c(C#N)c(C)nn2-c2ccccn2)cc(Cl)c1O
< 7.00

----------
run_description: Cytotoxicity against human NCK45 cells at 10 uM
Format: cell-based
applied_conditions: nck45, 10 µM
assay_endpoint: Activity

CCC(=O)Nc1cc(CNc2c(C#N)c(C)nn2-c2cccc(F)c2)cc(Cl)c1O	Toxic
CCC(=O)Nc1cc(CNc2c(C#N)cnn2-c2ccccc2)cc(Cl)c1O	Toxic
CCNC(=O)c1cc(CNc2c(C#N)c(C)nn2-c2ccccc2)cc(Cl)c1O	Toxic
CC(=O)Nc1cc(CNc2c(C#N)c(C)nn2-c2ccccc2)cc(Cl)c1O	Toxic
CCC(=O)Nc1cc(CNc2c(C#N)c(C)nn2-c2ccc(C)cc2)cc(Cl)c1O	Toxic
CCC(=O)Nc1cc(CNc2c(C#N)c(C)nn2-c2cc(Cl)cc(Cl)c2)cc(Cl)c1O	Toxic

Hello, please tell me recorded Activity for this one: CCC(=O)Nc1cc(CNc2c(C#N)c(C)nn2-c2cccc3ccccc23)cc(Cl)c1O
Toxic

Hello, please tell me recorded Activity for this one: CCC(=O)Nc1cc(CNc2c(C#N)c(C)nn2-c2cccc(-c3ccccc3Cl)c2)cc(Cl)c1O
Toxic

Hello, please tell me recorded Activity for this one: CCC(=O)Nc1cc(CNc2c(C#N)c(C)nn2-c2cccc(C)c2)cc(Cl)c1O
Toxic

Hello, please tell me recorded Activity for this one: CCC(=O)Nc1cc(CNc2c(C#N)c(C)nn2-c2nccc3ccccc23)cc(Cl)c1O
Toxic

Hello, please tell me recorded Activity for this one: CCC(=O)Nc1cc(CNc2c(C#N)c(C)nn2-c2ccc3ccccc3c2)cc(Cl)c1O
Toxic

Hello, please tell me recorded Activity for this one: CCC(=O)Nc1cc(CNc2c(C(=O)OC)c(C)nn2-c2ccccc2)cc(Cl)c1O
Toxic

Hello, please tell me recorded Activity for this one: CCC(=O)Nc1cc(CNc2c(C#N)c(C)nn2-c2cccc(-c3ccncc3)c2)cc(Cl)c1O
Toxic

Hello, please tell me recorded Activity for this one: CCC(=O)Nc1cc(CNc2c(C#N)c(C)nn2-c2cccc([N+](=O)[O-])c2)cc(Cl)c1O
Toxic

Hello, please tell me recorded Activity for this one: CCC(=O)Nc1cc(CNc2c(C#N)c(C)nn2C2CCCCC2)cc(Cl)c1O
Toxic

Hello, please tell me recorded Activity for this one: CCC(=O)Nc1cc(CNc2c(C#N)c(C)nn2-c2ccccc2C)cc(Cl)c1O
Toxic

----------
System: Human immunodeficiency virus 1
run_description: Antiviral activity against HIV-1 infected in human NCK45 cells assessed as inhibition of infection after 48 hrs by dual-reporter gene assay
Type: functional, organism-based
applied_conditions: Human immunodeficiency virus 1, NCK45, 48 h
assay_endpoint: EC50

Hello, please tell me recorded EC50 for this one: CCC(=O)Nc1cc(CNc2c(C#N)c(C)nn2-c2cccc(Br)c2)cc(Cl)c1O
> 0.1 µM

Hello, please tell me recorded EC50 for this one: CCC(=O)Nc1cc(CNc2c(C#N)c(C)nn2-c2cccc([N+](=O)[O-])c2)cc(Cl)c1O
> 1 µM

Hello, please tell me recorded EC50 for this one: CCC(=O)Nc1cc(Cl)cc(CNc2c(C#N)c(C)nn2-c2ccccc2)c1
> 10 µM

Hello, please tell me recorded EC50 for this one: CCC(=O)Nc1cc(CNc2c(C#N)c(C)nn2-c2cccc(-c3ccccc3Cl)c2)cc(Cl)c1O
0.25 µM

Hello, please tell me recorded EC50 for this one: CCC(=O)Nc1cc(CNc2c(C#N)c(C)nn2-c2cccc(C(F)(F)F)c2)cc(Cl)c1O
> 0.1 µM

Hello, please tell me recorded EC50 for this one: CCC(=O)Nc1cc(CNc2c(C#N)c(C)nn2-c2cccnc2)cc(Cl)c1O
> 10 µM

Hello, please tell me recorded EC50 for this one: CCC(=O)Nc1cc(CNc2c(C#N)c(C)nn2-c2nccc3ccccc23)cc(Cl)c1O
> 1 µM

Hello, please tell me recorded EC50 for this one: CCC(=O)Nc1cc(CNc2c(C#N)cnn2-c2ccccc2)cc(Cl)c1O
> 1 µM

Hello, please tell me recorded EC50 for this one: CCC(=O)Nc1cc(CNc2c(C#N)c(C)nn2-c2cccc(F)c2)cc(Cl)c1O
0.33 µM

Hello, please tell me recorded EC50 for this one: CCC(=O)Nc1cc(CNc2c(C#N)c(C)nn2-c2cccc(NC(C)=O)c2)cc(Cl)c1O
> 10 µM

Hello, please tell me recorded EC50 for this one: CCC(=O)Nc1cc(CNc2cc(C)nn2-c2ccccc2)cc(Cl)c1O
> 10 µM

Hello, please tell me recorded EC50 for this one: CCC(=O)Nc1cc(CNc2c(C#N)c(C)nn2-c2ccccc2)cc(Cl)c1OC
> 10 µM

Hello, please tell me recorded EC50 for this one: CCC(=O)Nc1cc(CNc2c(C#N)c(-c3ccccc3)nn2-c2ccccc2)cc(Cl)c1O
> 10 µM

Hello, please tell me recorded EC50 for this one: CCC(=O)Nc1cc(CNc2c(C#N)c(C)nn2-c2ccccc2)cc(C)c1O
> 10 µM

----------
Test system: Human immunodeficiency virus 1
run_description: Antiviral activity against HIV-1 infected in human NCK45 cells assessed as inhibition of infection after 48 hrs by dual-reporter gene assay
Format: functional, organism-based
applied_conditions: Human immunodeficiency virus 1, NCK45, 48 h
assay_endpoint: EC50

CCC(=O)Nc1cc(CNc2c(C#N)c(C)nn2-c2ccccc2)cc(Cl)c1O	360 nM

Now turn to the next compound.
Hello, please tell me recorded EC50 for this one: CCC(=O)Nc1cc(CNc2c(C#N)c(C)nn2-c2cccc(-c3ccncc3)c2)cc(Cl)c1O
> 1000 nM

----------
Test system: Human immunodeficiency virus 1
run_description: Antiviral activity against HIV-1 infected in human NCK45 cells assessed as inhibition of infection after 48 hrs by dual-reporter gene assay
Format: functional, organism-based
applied_conditions: Human immunodeficiency virus 1, NCK45, 48 h
pEC50: −log10 of the molar value.
In this section, each of the compounds is paired with its reported pEC50.

CCC(=O)Nc1cc(CNc2c(C#N)c(C)nn2-c2cccc(-c3cnc4ccccc4c3)c2)cc(Cl)c1O	< 7.00
CCC(=O)Nc1cc(CNc2c(C#N)c(C)nn2-c2cccc(-c3ccccc3)c2)cc(Cl)c1O	6.89
CCC(=O)Nc1cc(CNc2c(C#N)c(C)nn2C2CCCCC2)cc(Cl)c1O	< 6.00
CCC(=O)Nc1cc(CNc2c(C#N)c(C)nn2-c2ccc3ccccc3c2)cc(Cl)c1O	< 6.00

Hello, please tell me recorded pEC50 for this one: CCC(=O)Nc1cc(CNc2c(C#N)c(C)nn2-c2ccccc2C)cc(Cl)c1O
< 6.00

Hello, please tell me recorded pEC50 for this one: CCC(=O)Nc1cc(/N=N/c2c(C#N)c(C)nn2-c2ccccc2)cc(Cl)c1O
6.49

Hello, please tell me recorded pEC50 for this one: CCC(=O)Nc1cc(CNc2c(C#N)c(C)nn2-c2cccc(-c3cccc(OC)c3)c2)cc(Cl)c1O
< 7.00

Hello, please tell me recorded pEC50 for this one: CCC(=O)Nc1cc(CNc2c(C#N)c(C)nn2-c2cccc(-c3ccc(Cl)c(Cl)c3)c2)cc(Cl)c1O
7.33

Hello, please tell me recorded pEC50 for this one: CCC(=O)Nc1cc(CNc2c(C#N)c(C)nn2-c2cccc(-c3ccc(OC)cc3)c2)cc(Cl)c1O
< 7.00

Hello, please tell me recorded pEC50 for this one: CCCC(=O)Nc1cc(CNc2c(C#N)c(C)nn2-c2ccccc2)cc(Cl)c1O
5.48

Hello, please tell me recorded pEC50 for this one: CCC(=O)Nc1cc(CNc2c(C#N)c(C)nn2-c2cccc(-c3ccc(Cl)cc3)c2)cc(Cl)c1O
< 7.00

Hello, please tell me recorded pEC50 for this one: CCC(=O)Nc1cc(CNc2c(C#N)c(C)nn2-c2cccc(-c3ccc(C)cc3)c2)cc(Cl)c1O
7.01

Hello, please tell me recorded pEC50 for this one: CCC(=O)Nc1cc(CNc2c(C#N)c(C)nn2-c2cccc(-c3ccccc3C)c2)cc(Cl)c1O
< 7.00

Hello, please tell me recorded pEC50 for this one: CCC(=O)Nc1cc(CNc2c(C#N)c(C)nn2-c2cccc(-c3cccc(C)c3)c2)cc(Cl)c1O
7.24

Hello, please tell me recorded pEC50 for this one: CCC(=O)Nc1cc(CNc2c(C#N)c(C)nn2-c2ccc3ncccc3c2)cc(Cl)c1O
< 5.00

Hello, please tell me recorded pEC50 for this one: CCC(=O)Nc1cc(CNc2c(C#N)c(C)nn2-c2cccc(-c3ccc4ccccc4c3)c2)cc(Cl)c1O
< 7.00
